- System: cancer cell lines from the cancer cell line encyclopedia (CCLE)
- Assay Overview: Cell line profiling (CLiP) proliferation experiment
- Format: cell-based
- Condition Parameters: Homo sapiens, CAMA-1, CAMA-1 (breast); read-out: Crossing Point
- Method: Compound profiling experiment and data analysis was performed as previously described. Data was imported and plotted using the Tibco Spotfire DXP application. Lines were categorized as sensitive, intermediate and refractory as follows: Amax<-40 & Inflection Point <2 ~ Sensitive, Amax>-20 & Inflection Point >10 ~ Refractory, all else were called Intermediate. Cancer Cell line HG-U133 Plus 2 data was processed and normalized as described. […]
Value Type: IC50

Note down IC50 recorded for CC(C)[C@@]12C[C@@H](O)[C@@](C)(O1)[C@@H]1CC[C@@H](C)[C@H]1[C@@H]2OC(=O)/C=C/c1ccccc1 [Englerin B]
> 30 µM

###

- Test system: cancer cell lines from the cancer cell line encyclopedia (CCLE)
- Assay Overview: Cell line profiling (CLiP) proliferation experiment
- Assay type: cell-based
- Condition Parameters: cell line RKO; read-out: Inflection Point
Value Type: pEC50
# reply with the number alone; pEC50 is -log10 of concentration in mol/L

For "CC(C)[C@@]12C[C@@H](O)[C@@](C)(O1)[C@@H]1CC[C@@H](C)[C@H]1[C@@H]2OC(=O)/C=C/c1ccccc1" , write its pEC50.
4.88

###

- Tested on: cancer cell lines from the cancer cell line encyclopedia (CCLE)
- Assay Overview: Cell line profiling (CLiP) proliferation experiment
- Assay type: cell-based
- Condition Parameters: Homo sapiens, Calu-3, Calu-3 (lung); read-out: Crossing Point
Value Type: IC50

Query IC50 for "CC(C)[C@@]12C[C@@H](O)[C@@](C)(O1)[C@@H]1CC[C@@H](C)[C@H]1[C@@H]2OC(=O)/C=C/c1ccccc1"
> 30 µM

###

- Test system: cancer cell lines from the cancer cell line encyclopedia (CCLE)
- Assay Overview: Cell line profiling (CLiP) proliferation experiment
- Assay type: cell-based
- Condition Parameters: Homo sapiens, NCI-H1693, cell line NCI-H1693; read-out: Crossing Point
pIC50: −log10 of the molar value.
Value Type: pIC50

Return pIC50 (reported value) for this compound: CC(C)[C@@]12C[C@@H](O)[C@@](C)(O1)[C@@H]1CC[C@@H](C)[C@H]1[C@@H]2OC(=O)/C=C/c1ccccc1 [Englerin B]
< 4.52

###

- System: cancer cell lines from the cancer cell line encyclopedia (CCLE)
- Assay Overview: Cell line profiling (CLiP) proliferation experiment
- Type: cell-based
- Condition Parameters: Homo sapiens, HMCB, cell line HMCB, skin; read-out: Inflection Point
- Experimental: Compound profiling experiment and data analysis was performed as previously described. Data was imported and plotted using the Tibco Spotfire DXP application. Lines were categorized as sensitive, intermediate and refractory as follows: Amax<-40 & Inflection Point <2 ~ Sensitive, Amax>-20 & Inflection Point >10 ~ Refractory, all else were called Intermediate. Cancer Cell line HG-U133 Plus 2 data was processed and normalized as described. […]
Value Type: pEC50
In simple prose, pEC50 is minus the logarithm base ten of a concentration in moles per litre.

Provide measured pEC50 value, entry: "CC(C)[C@@]12C[C@@H](O)[C@@](C)(O1)[C@@H]1CC[C@@H](C)[C@H]1[C@@H]2OC(=O)/C=C/c1ccccc1"
4.73

###

- Test system: cancer cell lines from the cancer cell line encyclopedia (CCLE)
- Assay Overview: Cell line profiling (CLiP) proliferation experiment
- Format: cell-based
- Condition Parameters: Homo sapiens, MKN-7, cell line MKN7 (stomach); read-out: Crossing Point
pIC50: −log10 of the molar value.
Value Type: pIC50

Indicate the recorded pIC50 value for this compound: "CC(C)[C@@]12C[C@@H](O)[C@@](C)(O1)[C@@H]1CC[C@@H](C)[C@H]1[C@@H]2OC(=O)/C=C/c1ccccc1"
< 4.52

###

- System: cancer cell lines from the cancer cell line encyclopedia (CCLE)
- Assay Overview: Cell line profiling (CLiP) proliferation experiment
- Assay type: cell-based
- Condition Parameters: Homo sapiens, SK-N-DZ, cell line SK-N-DZ, autonomic_ganglia; read-out: Crossing Point
pIC50: −log10 of the molar value.
Value Type: pIC50

Look up and report pIC50, with cancer cell lines from the cancer cell line encyclopedia (CCLE) as system, for CC(C)[C@@]12C[C@@H](O)[C@@](C)(O1)[C@@H]1CC[C@@H](C)[C@H]1[C@@H]2OC(=O)/C=C/c1ccccc1 [Englerin B]
< 4.52

###

- Test system: cancer cell lines from the cancer cell line encyclopedia (CCLE)
- Assay Overview: Cell line profiling (CLiP) proliferation experiment
- Assay type: cell-based
- Condition Parameters: Homo sapiens, TE-11, TE-11 (oesophagus, squamous_cell_carcinoma); read-out: Inflection Point
Value Type: pEC50
The value called pEC50 is obtained by taking minus log10 of the concentration in mol/L.

Could you please provide reported pEC50 for "CC(C)[C@@]12C[C@@H](O)[C@@](C)(O1)[C@@H]1CC[C@@H](C)[C@H]1[C@@H]2OC(=O)/C=C/c1ccccc1" ? Thanks!
4.87

###

- System: cancer cell lines from the cancer cell line encyclopedia (CCLE)
- Assay Overview: Cell line profiling (CLiP) proliferation experiment
- Type: cell-based
- Condition Parameters: Homo sapiens, A2058, cell line A2058; skin; NS; read-out: Crossing Point
Value Type: pIC50
By convention, pIC50 is the negative base-10 log of a molar concentration.

Name the recorded pIC50 of the item "CC(C)[C@@]12C[C@@H](O)[C@@](C)(O1)[C@@H]1CC[C@@H](C)[C@H]1[C@@H]2OC(=O)/C=C/c1ccccc1" in your answer.
4.73

###

- Tested on: cancer cell lines from the cancer cell line encyclopedia (CCLE)
- Assay Overview: Cell line profiling (CLiP) proliferation experiment
- Assay type: cell-based
- Condition Parameters: Homo sapiens, PC-14, cell line PC-14; read-out: Crossing Point
Value Type: IC50

Entry CC(C)[C@@]12C[C@@H](O)[C@@](C)(O1)[C@@H]1CC[C@@H](C)[C@H]1[C@@H]2OC(=O)/C=C/c1ccccc1 [Englerin B] needs its IC50 filled in; supply it.
21.4 µM

###

- System: cancer cell lines from the cancer cell line encyclopedia (CCLE)
- Assay Overview: Cell line profiling (CLiP) proliferation experiment
- Format: cell-based
- Condition Parameters: Homo sapiens, SK-ES1, cell line SK-ES-1, bone; read-out: Inflection Point
Value Type: EC50 (µM)
Reply numerically in µM, unit not repeated.

Look up and report measured EC50 for this entry: CC(C)[C@@]12C[C@@H](O)[C@@](C)(O1)[C@@H]1CC[C@@H](C)[C@H]1[C@@H]2OC(=O)/C=C/c1ccccc1 [Englerin B]
20.4

###

- Test system: cancer cell lines from the cancer cell line encyclopedia (CCLE)
- Assay Overview: Cell line profiling (CLiP) proliferation experiment
- Type: cell-based
- Condition Parameters: Homo sapiens, SK-LU-1, SK-LU-1 (lung); read-out: Crossing Point
- Protocol: Compound profiling experiment and data analysis was performed as previously described. Data was imported and plotted using the Tibco Spotfire DXP application. Lines were categorized as sensitive, intermediate and refractory as follows: Amax<-40 & Inflection Point <2 ~ Sensitive, Amax>-20 & Inflection Point >10 ~ Refractory, all else were called Intermediate. Cancer Cell line HG-U133 Plus 2 data was processed and normalized as described. […]
Value Type: IC50

Give me measured IC50, please, for this compound: "CC(C)[C@@]12C[C@@H](O)[C@@](C)(O1)[C@@H]1CC[C@@H](C)[C@H]1[C@@H]2OC(=O)/C=C/c1ccccc1"
> 30 µM

###

- Test system: cancer cell lines from the cancer cell line encyclopedia (CCLE)
- Assay Overview: Cell line profiling (CLiP) proliferation experiment
- Type: cell-based
- Condition Parameters: Homo sapiens, HT55, cell line HT55, large_intestine; read-out: Crossing Point
pIC50: −log10 of the molar value.
Value Type: pIC50

Provide pIC50, tested on cancer cell lines from the cancer cell line encyclopedia (CCLE), for "CC(C)[C@@]12C[C@@H](O)[C@@](C)(O1)[C@@H]1CC[C@@H](C)[C@H]1[C@@H]2OC(=O)/C=C/c1ccccc1" .
< 4.52

###

- Test system: cancer cell lines from the cancer cell line encyclopedia (CCLE)
- Assay Overview: Cell line profiling (CLiP) proliferation experiment
- Assay type: cell-based
- Condition Parameters: Homo sapiens, SF-126, cell line SF126, central_nervous_system, astrocytoma; read-out: Crossing Point
Value Type: IC50 (µM)
Reply numerically in µM, unit not repeated.

Look up IC50 of CC(C)[C@@]12C[C@@H](O)[C@@](C)(O1)[C@@H]1CC[C@@H](C)[C@H]1[C@@H]2OC(=O)/C=C/c1ccccc1 [Englerin B] and report it.
23.2

###

- Test system: cancer cell lines from the cancer cell line encyclopedia (CCLE)
- Assay Overview: Cell line profiling (CLiP) proliferation experiment
- Type: cell-based
- Condition Parameters: TT2609-C02 cells; read-out: Inflection Point
Value Type: pEC50
# log scale: pEC50 equals minus log10 of the concentration in mol/L

Fill in reported pEC50 for this entry: "CC(C)[C@@]12C[C@@H](O)[C@@](C)(O1)[C@@H]1CC[C@@H](C)[C@H]1[C@@H]2OC(=O)/C=C/c1ccccc1"
4.84
